Test: Apparent permeability across apical to basolateral side in human Caco2 cells at 2 uM after 2 hrs by LC-MS analysis
Assay type: ADME, cell-based
Settings: Caco-2
The compounds listed here are annotated with their Papp A→B at 2 h, 2 µM.
Answer format: value, then unit.

For orientation, consider the following solved cases.
Name the reported Papp A→B at 2 h, 2 µM value associated with the compound COC(=O)Nc1c(N)nc(-c2nn(Cc3ccccc3F)c3ncccc23)nc1N
7.9 ×10⁻⁶ cm/s

Which Papp A→B at 2 h, 2 µM value is on record for Nc1nc(-c2nn(Cc3ccccc3F)c3ncccc23)nc(N)c1NC(=O)OC1CCC1 ?
2.3 ×10⁻⁶ cm/s

Then there is this compound:
Quick one: Papp A→B at 2 h, 2 µM for Nc1nc(-c2nn(Cc3ccccc3F)c3ncccc23)nc(N)c1NC(=O)OC1COC1 ?
0.2 ×10⁻⁶ cm/s

Values compiled from ChEMBL document CHEMBL4014344.
